Data origin: the pKa sets of Baltruschat and Czodrowski (2020)

settings: acidic group
Entries are sorted into classes by pKa as follows: b0 = under 5, b1 = from 5 up to 8, b2 = 8 and over

- compound: "OCO"
  class-assignment: "b2"
- compound: "Cc1cccc2c1C(=O)NC2=O"
  class-assignment: "b2"
- compound: "O=C1NC(=O)C(=NO)C(=O)N1"
  class-assignment: "b0"
- compound: "Cn1cnc(C(=O)[O-])c1C(=O)O"
  class-assignment: "b0"
- compound: "NC(=O)C(N)CO (stereo unspecified)"
  class-assignment: "b1"
- compound: "CCP(=O)(CC)CC=O"
  class-assignment: "b2"
- compound: "Nc1ccc(S(=O)(=O)Nc2nncs2)cc1"
  class-assignment: "b0"
- compound: "SCCNc1ccccc1"
  class-assignment: "b2"
- compound: "COC(=O)C1c2ccccc2-c2ccccc21"
  class-assignment: "b2"
- compound: "CC[NH2+]CCC(=O)O"
  class-assignment: "b0"
- compound: "Nc1ccc(S(=O)(=O)Nc2ccc(O)cn2)cc1"
  class-assignment: "b1"
- compound: "c1cc(-c2nn[nH]n2)cc(-c2nnn[nH]2)c1"
  class-assignment: "b0"
- compound: "CCNc1nnn[nH]1"
  class-assignment: "b1"
- compound: "CN(C)c1cccc2c(S(=O)(=O)NCC[NH+](C)C)cccc12"
  class-assignment: "b2"
- compound: "O=C(O)c1csc(Br)c1"
  class-assignment: "b0"
- compound: "[O-]c1cc([O-])cc(O)c1"
  class-assignment: "b2"
- compound: "O=S(=O)([O-])c1ccc(O)c2[nH]ncc12"
  class-assignment: "b1"
- compound: "C=C(C)[C@H]1C[NH2+][C@H](C(=O)O)[C@H]1CC(N)=O"
  class-assignment: "b0"
- compound: "COc1cc(CN)ccc1O"
  class-assignment: "b2"
- compound: "CC(C)(S)[C@@H](C(=O)[O-])n1ccnc1Cc1ccccc1"
  class-assignment: "b2"
- compound: "Cc1nc(NS(=O)(=O)c2ccc(N)cc2)no1"
  class-assignment: "b0"
- compound: "Cc1ccc(C(C)C)cc1O"
  class-assignment: "b2"
- compound: "CC(C)C(O)C(C(=O)O)c1ccc(-c2ccccc2)cc1 (stereo unspecified)"
  class-assignment: "b0"
- compound: "Cc1ccc(O)cc1Cc1cc([N+](=O)[O-])ccc1[O-]"
  class-assignment: "b2"
- compound: "[O-]c1ncncc1O"
  class-assignment: "b2"
- compound: "N#Cc1c(-c2nc3ccccc3o2)c(=O)oc2cc(O)ccc12"
  class-assignment: "b1"
- compound: "C/C(=N/O)c1ccccc1"
  class-assignment: "b2"
- compound: "O=C(O)C[C@]1(O)C[C@H]2CC[C@@H]1C2"
  class-assignment: "b0"
- compound: "Cc1cc(C(=O)O)n[nH]1"
  class-assignment: "b0"
- compound: "Ic1ccc(-c2nnn[nH]2)cc1"
  class-assignment: "b0"
- compound: "NS(=O)(=O)c1ccccc1"
  class-assignment: "b2"
- compound: "C[N+]1(CCCCCC(=O)O)CCCCC1"
  class-assignment: "b0"
- compound: "COc1nc2ncncc2[nH]1"
  class-assignment: "b1"
- compound: "O=C(O)[C@@H]1C[C@@H](O)C[NH2+]1"
  class-assignment: "b0"
- compound: "Cc1cc(N)ccc1S(=O)(=O)Nc1nccs1"
  class-assignment: "b1"
- compound: "CCCCCP(=O)(O)CCCCC"
  class-assignment: "b0"
- compound: "O=[N+]([O-])c1cccc(S(=O)(=O)Nc2ccccc2)c1"
  class-assignment: "b1"
